- target.system: PRMT4 (Homo sapiens)
- Construct: gene CARM1
- Sequence (Q86X55 whole entry): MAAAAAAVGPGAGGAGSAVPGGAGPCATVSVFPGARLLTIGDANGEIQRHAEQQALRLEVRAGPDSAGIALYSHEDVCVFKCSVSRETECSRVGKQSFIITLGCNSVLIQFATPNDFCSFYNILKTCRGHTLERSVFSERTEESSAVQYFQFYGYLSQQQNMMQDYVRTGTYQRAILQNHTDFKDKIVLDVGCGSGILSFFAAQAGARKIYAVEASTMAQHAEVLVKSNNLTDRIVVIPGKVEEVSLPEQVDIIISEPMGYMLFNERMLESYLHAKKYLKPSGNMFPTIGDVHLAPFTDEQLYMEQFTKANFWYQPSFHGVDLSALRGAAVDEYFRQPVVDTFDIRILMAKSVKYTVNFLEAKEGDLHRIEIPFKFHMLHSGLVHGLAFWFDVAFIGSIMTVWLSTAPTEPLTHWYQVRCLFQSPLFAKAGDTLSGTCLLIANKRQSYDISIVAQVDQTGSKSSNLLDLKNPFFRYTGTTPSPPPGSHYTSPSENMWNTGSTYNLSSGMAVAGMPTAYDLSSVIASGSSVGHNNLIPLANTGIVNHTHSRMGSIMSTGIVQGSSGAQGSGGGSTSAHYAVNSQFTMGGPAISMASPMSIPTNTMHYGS
- assay.details: biochemical
- Set-up: radiometric methyltransferase assay with tritiated SAM, IC50
measured.metric: IC50 (nM)
Answers are plain numbers, in nM.

Request - read-out IC50 | tested on PRMT4 (Homo sapiens) | compound Nc1ncnc2c1ncn2[C@@H]1O[C@H](CSCCCNCc2cccc(-c3ccc(Cl)cc3)c2)[C@@H](O)[C@H]1O [SGC8172]
3.6

====

- target.system: PRMT5-MEP50 (Homo sapiens)
- Sequence (O14744 whole entry): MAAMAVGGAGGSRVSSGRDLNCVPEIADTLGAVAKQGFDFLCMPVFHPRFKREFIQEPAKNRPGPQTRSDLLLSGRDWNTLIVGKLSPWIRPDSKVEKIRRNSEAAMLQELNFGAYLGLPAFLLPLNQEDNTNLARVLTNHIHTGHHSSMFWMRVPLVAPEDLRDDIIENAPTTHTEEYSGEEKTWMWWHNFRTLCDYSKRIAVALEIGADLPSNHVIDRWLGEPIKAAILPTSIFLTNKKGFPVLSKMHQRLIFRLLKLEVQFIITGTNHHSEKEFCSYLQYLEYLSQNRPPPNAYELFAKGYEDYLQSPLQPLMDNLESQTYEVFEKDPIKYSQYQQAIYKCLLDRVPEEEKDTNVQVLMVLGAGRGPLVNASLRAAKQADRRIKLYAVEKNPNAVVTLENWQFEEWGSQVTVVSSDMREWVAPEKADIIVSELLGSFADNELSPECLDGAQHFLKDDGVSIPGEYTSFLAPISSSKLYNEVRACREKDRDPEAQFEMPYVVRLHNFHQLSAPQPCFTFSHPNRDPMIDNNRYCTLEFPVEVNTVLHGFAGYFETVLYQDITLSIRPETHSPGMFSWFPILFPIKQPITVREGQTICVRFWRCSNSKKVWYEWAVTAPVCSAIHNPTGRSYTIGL
- Sequence (Q9BQA1 whole entry partner): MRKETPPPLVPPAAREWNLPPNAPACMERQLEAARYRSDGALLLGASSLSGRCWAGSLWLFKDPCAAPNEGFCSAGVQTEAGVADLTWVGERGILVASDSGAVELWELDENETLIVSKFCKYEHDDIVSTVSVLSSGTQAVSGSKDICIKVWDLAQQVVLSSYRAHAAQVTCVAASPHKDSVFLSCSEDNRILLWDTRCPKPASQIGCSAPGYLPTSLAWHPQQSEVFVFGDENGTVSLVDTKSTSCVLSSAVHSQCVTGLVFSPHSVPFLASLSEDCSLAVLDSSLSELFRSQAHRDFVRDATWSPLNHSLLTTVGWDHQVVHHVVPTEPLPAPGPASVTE
measured.metric: IC50 (nM)
Numbers only, in nM.

Suppose we examine the compound Nc1ncnc2c1ncn2[C@@H]1O[C@H](CSCCCNCc2cccc(-c3ccc(Cl)cc3)c2)[C@@H](O)[C@H]1O ; what IC50 value has been reported?
44

====

- target.system: PRMT1 (Homo sapiens, UniProt Q99873)
- Sequence (Q99873 whole entry): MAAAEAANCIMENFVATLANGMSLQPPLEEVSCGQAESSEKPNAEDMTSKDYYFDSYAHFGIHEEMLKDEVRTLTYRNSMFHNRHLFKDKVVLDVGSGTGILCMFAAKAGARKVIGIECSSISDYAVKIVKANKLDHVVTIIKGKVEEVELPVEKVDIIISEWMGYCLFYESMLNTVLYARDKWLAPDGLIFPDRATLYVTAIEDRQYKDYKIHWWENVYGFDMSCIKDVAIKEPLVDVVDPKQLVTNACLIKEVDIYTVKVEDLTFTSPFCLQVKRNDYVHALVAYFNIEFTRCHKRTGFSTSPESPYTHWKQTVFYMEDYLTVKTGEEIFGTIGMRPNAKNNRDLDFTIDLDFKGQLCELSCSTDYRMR
- assay.details: biochemical
- Set-up: radiometric methyltransferase assay with tritiated SAM, IC50
measured.metric: pIC50
Answers are plain numbers, as −log10 of the molar value.

Suppose we examine the molecule Nc1ncnc2c1ncn2[C@@H]1O[C@H](CSCCCCNCc2cccc(-c3ccc(Cl)cc3)c2)[C@@H](O)[C@H]1O ; what pIC50 value has been reported?
4.92

====

- target.system: BCDIN3D (Homo sapiens)
- Sequence (Q7Z5W3 whole entry): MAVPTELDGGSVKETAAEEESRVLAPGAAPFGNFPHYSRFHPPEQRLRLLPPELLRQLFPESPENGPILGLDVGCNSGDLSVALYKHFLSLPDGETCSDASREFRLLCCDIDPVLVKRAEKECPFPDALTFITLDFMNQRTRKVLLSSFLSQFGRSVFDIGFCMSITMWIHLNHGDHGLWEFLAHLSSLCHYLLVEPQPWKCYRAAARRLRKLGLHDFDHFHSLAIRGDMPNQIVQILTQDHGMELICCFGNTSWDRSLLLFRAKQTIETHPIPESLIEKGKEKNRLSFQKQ
measured.metric: pIC50
Numbers only, as −log10 of the molar value.

Suppose we examine the compound Nc1ncnc2c1ncn2[C@@H]1O[C@H](CSCCCCNCc2cccc(-c3ccc(Cl)cc3)c2)[C@@H](O)[C@H]1O ; what pIC50 value has been reported?
5.96

====

- target.system: PRMT6 (Homo sapiens, UniProt Q96LA8)
- Sequence (Q96LA8 whole entry): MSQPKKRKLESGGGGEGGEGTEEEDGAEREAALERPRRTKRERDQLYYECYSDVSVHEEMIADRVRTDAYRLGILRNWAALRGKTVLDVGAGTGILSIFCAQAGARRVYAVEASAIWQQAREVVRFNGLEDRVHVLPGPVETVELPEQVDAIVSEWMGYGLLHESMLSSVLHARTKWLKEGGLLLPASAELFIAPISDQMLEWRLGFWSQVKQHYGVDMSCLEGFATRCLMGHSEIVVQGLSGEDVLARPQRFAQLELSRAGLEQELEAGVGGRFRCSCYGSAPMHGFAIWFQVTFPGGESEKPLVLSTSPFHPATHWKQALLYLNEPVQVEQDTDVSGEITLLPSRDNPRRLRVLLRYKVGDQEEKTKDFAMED
- assay.details: biochemical
- Parameters: radiometric methyltransferase assay with tritiated SAM, IC50
- Experimental: The methyltransferase selectivity was assessed at two compound concentrations of 1 and 10 μM by radiometric assays using tritiated-SAM. […] The counts per minute (CPM) was measured on a TopCount plate reader. […] Selectivity of SGC8158 against 342 kinases was evaluated in a kinase panel TR-FRET assay at 1 and 0.1 μM compound in duplicates as described before. […] Excitation wavelength was 337 nm and fluorescent emission signal was measured for Tb (486 nm) and fluorescent probe (BODIPY, 515 nm). […]
measured.metric: IC50

Suppose we examine the compound Nc1ncnc2c1ncn2[C@@H]1O[C@H](CSCCCNCc2cccc(-c3ccc(Cl)cc3)c2)[C@@H](O)[C@H]1O [SGC8172] ; what IC50 value has been reported?
~1200 nM

====

- target.system: PRMT8 (Homo sapiens, UniProt Q9NR22)
- Sequence (Q9NR22 whole entry): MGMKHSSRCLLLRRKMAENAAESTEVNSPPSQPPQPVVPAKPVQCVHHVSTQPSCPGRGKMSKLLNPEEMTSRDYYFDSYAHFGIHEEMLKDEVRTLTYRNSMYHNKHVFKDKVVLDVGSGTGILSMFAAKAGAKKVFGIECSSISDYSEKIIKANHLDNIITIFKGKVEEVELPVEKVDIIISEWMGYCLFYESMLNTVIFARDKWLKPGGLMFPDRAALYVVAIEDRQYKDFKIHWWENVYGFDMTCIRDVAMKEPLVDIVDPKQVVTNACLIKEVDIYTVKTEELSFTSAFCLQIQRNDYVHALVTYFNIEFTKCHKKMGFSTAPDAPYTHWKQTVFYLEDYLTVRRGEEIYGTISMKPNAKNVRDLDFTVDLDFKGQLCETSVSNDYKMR
measured.metric: IC50

Request - read-out IC50 | tested on PRMT8 (Homo sapiens, UniProt Q9NR22) | compound Nc1ncnc2c1ncn2[C@@H]1O[C@H](CSCCCNCc2cccc(-c3ccc(Cl)cc3)c2)[C@@H](O)[C@H]1O
~1500 nM

====

- target.system: DOT1L (Homo sapiens, UniProt Q8TEK3)
- Sequence (Q8TEK3 whole entry): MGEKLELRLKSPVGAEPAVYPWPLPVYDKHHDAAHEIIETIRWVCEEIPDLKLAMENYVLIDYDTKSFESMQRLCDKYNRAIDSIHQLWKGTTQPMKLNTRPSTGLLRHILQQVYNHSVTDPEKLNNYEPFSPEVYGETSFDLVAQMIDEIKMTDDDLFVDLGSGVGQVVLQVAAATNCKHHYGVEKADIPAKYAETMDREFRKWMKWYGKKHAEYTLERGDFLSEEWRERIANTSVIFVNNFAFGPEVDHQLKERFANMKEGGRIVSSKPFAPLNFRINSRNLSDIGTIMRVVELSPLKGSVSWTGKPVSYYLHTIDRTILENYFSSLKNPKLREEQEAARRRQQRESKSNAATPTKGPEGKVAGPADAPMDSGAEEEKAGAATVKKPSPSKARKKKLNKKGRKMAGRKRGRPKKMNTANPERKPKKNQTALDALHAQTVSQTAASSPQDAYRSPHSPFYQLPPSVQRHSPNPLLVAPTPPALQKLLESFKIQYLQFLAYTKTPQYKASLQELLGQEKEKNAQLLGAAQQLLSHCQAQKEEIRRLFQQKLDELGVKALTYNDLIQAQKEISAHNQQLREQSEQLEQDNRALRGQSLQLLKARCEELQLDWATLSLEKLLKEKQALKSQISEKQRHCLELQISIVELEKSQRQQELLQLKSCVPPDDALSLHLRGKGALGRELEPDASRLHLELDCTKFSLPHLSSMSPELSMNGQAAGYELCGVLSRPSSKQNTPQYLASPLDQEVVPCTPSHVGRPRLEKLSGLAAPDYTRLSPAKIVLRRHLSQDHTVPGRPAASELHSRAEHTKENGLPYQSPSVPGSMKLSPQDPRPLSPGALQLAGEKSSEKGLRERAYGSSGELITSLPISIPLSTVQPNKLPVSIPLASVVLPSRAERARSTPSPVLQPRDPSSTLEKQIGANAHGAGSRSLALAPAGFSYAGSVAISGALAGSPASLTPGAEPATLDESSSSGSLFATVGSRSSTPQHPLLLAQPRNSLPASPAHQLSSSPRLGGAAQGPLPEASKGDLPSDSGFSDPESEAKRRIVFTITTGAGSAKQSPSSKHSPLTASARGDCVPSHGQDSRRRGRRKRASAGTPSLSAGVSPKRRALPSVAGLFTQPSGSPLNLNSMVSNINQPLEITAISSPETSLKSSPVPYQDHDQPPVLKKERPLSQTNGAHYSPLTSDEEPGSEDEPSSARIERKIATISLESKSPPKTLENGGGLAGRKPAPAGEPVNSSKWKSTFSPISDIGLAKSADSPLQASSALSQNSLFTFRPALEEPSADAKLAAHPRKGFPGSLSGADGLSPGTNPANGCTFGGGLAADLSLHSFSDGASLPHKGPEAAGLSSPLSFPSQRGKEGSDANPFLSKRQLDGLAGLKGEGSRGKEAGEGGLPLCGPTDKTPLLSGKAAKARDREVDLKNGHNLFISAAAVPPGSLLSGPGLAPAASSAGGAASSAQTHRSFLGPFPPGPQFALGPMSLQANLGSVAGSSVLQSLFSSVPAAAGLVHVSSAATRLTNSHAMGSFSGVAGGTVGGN
measured.metric: pIC50
Answers are plain numbers, as −log10 of the molar value.

Request - read-out pIC50 | tested on DOT1L (Homo sapiens, UniProt Q8TEK3) | molecule Nc1ncnc2c1ncn2[C@@H]1O[C@H](CSCCCCNCc2cccc(-c3ccc(Cl)cc3)c2)[C@@H](O)[C@H]1O
5.77

====

- target.system: PRMT1 (Homo sapiens, UniProt Q99873)
- assay.details: biochemical
- Parameters: radiometric methyltransferase assay with tritiated SAM, IC50
measured.metric: IC50

Request - read-out IC50 | tested on PRMT1 (Homo sapiens, UniProt Q99873) | molecule Nc1ncnc2c1ncn2[C@@H]1O[C@H](CSCCCNCc2cccc(-c3ccc(Cl)cc3)c2)[C@@H](O)[C@H]1O [SGC8172]
> 5 µM
